Each recorded value in this set is attributed to patent US6136815A.

Consider the following compounds and their measured EC50 readings.
Test system: HIV-1
Assay protocol: in vitro anti-HIV-1 assay: inhibition of the virus-induced cytopathic effect in MT-4 cells (MTT)
Assay type: cell-based
Settings: Human immunodeficiency virus 1, MT4, read-out: ED50
Only the number, expressed in ng/mL, is required.

INSERT INTO assay_data (compound, measured_attribute, unit_descriptor, observed_value) VALUES
  ('Cc1cn([C@H]2C[C@H](N=[N+]=[N-])[C@@H](CO)O2)c(=O)[nH]c1=O [AZT, 3''-azido-3''-deoxythymidine, reference compound]', 'EC50', 'ng/mL', 1.16);

Now for another entry.
# input // query EC50 value for entry `CCOCn1c(Oc2ccccc2)c(C(C)C)c(=O)[nH]c1=O`
# output 18
